Origin of the recorded values: patent US9815796B2

subject-of-test: human PDE2A1 (Homo sapiens (Human), UniProt O00408)
Sequence (O00408 other isoform, or with tags, fused parts or gaps): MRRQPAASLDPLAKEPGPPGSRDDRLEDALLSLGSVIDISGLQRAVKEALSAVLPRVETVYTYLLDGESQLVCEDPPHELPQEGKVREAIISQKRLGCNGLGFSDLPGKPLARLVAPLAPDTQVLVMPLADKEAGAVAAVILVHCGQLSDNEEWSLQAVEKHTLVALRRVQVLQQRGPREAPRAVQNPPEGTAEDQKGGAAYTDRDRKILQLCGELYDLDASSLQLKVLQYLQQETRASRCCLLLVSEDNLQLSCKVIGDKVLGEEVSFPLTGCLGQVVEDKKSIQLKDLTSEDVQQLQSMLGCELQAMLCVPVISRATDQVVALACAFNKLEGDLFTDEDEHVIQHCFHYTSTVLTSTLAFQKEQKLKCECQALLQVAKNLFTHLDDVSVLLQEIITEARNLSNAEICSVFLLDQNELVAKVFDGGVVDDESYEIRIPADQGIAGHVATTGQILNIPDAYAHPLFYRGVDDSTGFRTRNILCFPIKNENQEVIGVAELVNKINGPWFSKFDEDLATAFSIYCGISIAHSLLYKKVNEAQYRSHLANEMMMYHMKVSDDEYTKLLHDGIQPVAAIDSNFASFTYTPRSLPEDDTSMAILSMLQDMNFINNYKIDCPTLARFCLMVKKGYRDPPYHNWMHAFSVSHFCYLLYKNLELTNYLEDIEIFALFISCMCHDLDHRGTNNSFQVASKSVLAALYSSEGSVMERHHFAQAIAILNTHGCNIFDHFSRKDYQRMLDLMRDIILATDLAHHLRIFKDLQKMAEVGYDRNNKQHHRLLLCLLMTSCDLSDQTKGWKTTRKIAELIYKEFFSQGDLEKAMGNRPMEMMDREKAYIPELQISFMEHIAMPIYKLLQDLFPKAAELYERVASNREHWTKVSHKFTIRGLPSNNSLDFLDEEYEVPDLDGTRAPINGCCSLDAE
experiment: IMAP FP PDE selectivity panel, human PDE2A1
Type: biochemical
particulars: Human PDE2, Lab A; read-out: Human PDE2 Ki (nM) - Lab A
quantity-kind: Ki (nM)

INSERT INTO results (compound, quantity_kind, recorded_result) VALUES
  ('CC(NC(=O)c1cc(=O)[nH]c(C2CC2)n1)c1ccc(C2CC2)cc1 (centres unmarked)', 'Ki', 18),
  ('CC[C@@H](NC(=O)c1cc(=O)[nH]c(C)n1)c1ccc(SC(F)(F)F)cc1', 'Ki', 4.9),
  ('O=C(NC1(c2ccc(OC(F)(F)F)cc2)CCC1)c1cc(=O)[nH]c(-c2ccccc2)n1', 'Ki', 61),
  ('O=C(NC1(c2ccc(SC(F)(F)F)c(F)c2)CC1)c1cc(=O)[nH]c(-c2ncccn2)n1', 'Ki', 17),
  ('Cc1nc(C(=O)N[C@H](C)c2ccc(C(F)(F)F)cc2F)cc(=O)[nH]1', 'Ki', 81);

A: Cc1nc(C(=O)NC2(c3ccc(C(F)(F)F)cc3)CCCC2)cc(=O)[nH]1
B: O=C(NC1(c2ccc(C(F)(F)F)cc2)CCC1)c1cc(=O)[nH]c(-c2ncccn2)n1
Query: // select label with min value of measured Ki from [ A , B ] Please identify the chosen entry by its label.
Result: B

---

subject-of-test: human PDE2A1 (Homo sapiens (Human))
experiment: IMAP FP PDE selectivity panel, human PDE2A1
Format: biochemical
particulars: Human PDE2, Lab A; read-out: Human PDE2 Ki (nM) - Lab A
quantity-kind: Ki (nM)

INSERT INTO measurements (line_notation, value_unit, recorded_result) VALUES
  ('COc1cc(C(F)(F)F)ccc1[C@@H](C)NC(=O)c1cc(=O)[nH]c(C2CC2)n1', 'nM', 31),
  ('CC(C)(NC(=O)c1cc(=O)[nH]c(-c2ncccn2)n1)c1ccc(C(F)(F)F)cc1', 'nM', 123);

1: C[C@@H](NC(=O)c1cc(=O)[nH]cn1)c1ccc(C(F)(F)F)cc1
2: C[C@@H](NC(=O)c1cc(=O)[nH]c(C2CC2)n1)c1ccc(OC(F)(F)F)cc1
Query: Please state the entry with greater Ki among 1 and 2 . Please identify the chosen entry by its label.
Result: 1
(1: 334 nM, 2: 6 nM)

---

subject-of-test: human PDE2A1 (Homo sapiens (Human), UniProt O00408)
experiment: IMAP FP PDE selectivity panel, human PDE2A1
Type: biochemical
particulars: Human PDE2, Lab B; read-out: Human PDE2 Ki (nM) - Lab B
quantity-kind: Ki (nM)

Example entries begin here.
INSERT INTO assay_data (compound, value_unit, recorded_result) VALUES
  ('O=C(NC(CCO)c1ccc(C(F)(F)F)cc1)c1cc(=O)[nH]c(-c2ccccc2)n1 (stereo not drawn) [Example 421]', 'nM', 9.4),
  ('COc1ccc(C(C)(C)c2nc(C(=O)N[C@@H](c3ccc(SC(F)(F)F)c(F)c3)C3CC3)cc(=O)[nH]2)cc1 [Example 497]', 'nM', 60),
  ('CC(C)[C@@H](NC(=O)c1cc(=O)[nH]c(C2CC2)n1)c1ccc(SC(F)(F)F)c(F)c1 [Example 244]', 'nM', 3);

P: COc1ccc(Cc2nc(C(=O)N[C@@H](c3ccc(C(F)(F)F)c(F)c3)C(C)(C)C)cc(=O)[nH]2)cc1 [Example 466]
Q: CC(C)(C)[C@@H](NC(=O)c1cc(=O)[nH]c(-c2ccccc2)n1)c1ccc(S(F)(F)(F)(F)F)cc1 [Example 540]
Query: // select label with min value of measured Ki from [ P , Q ] Please identify the chosen entry by its label.
Result: P

---

subject-of-test: human PDE2A1 (Homo sapiens (Human))
experiment: IMAP FP PDE selectivity panel, human PDE2A1
Format: biochemical
particulars: Human PDE2, Lab B; read-out: Human PDE2 Ki (nM) - Lab B
quantity-kind: Ki (nM)

INSERT INTO results (compound, subject_of_test, recorded_result) VALUES
  ('Cc1nc(C(=O)N[C@@H](c2ccc3c(c2)OC(F)(F)O3)C(C)C)cc(=O)[nH]1', 'human PDE2A1 (Homo sapiens (Human))', 48),
  ('COc1ccc(C(C)(C)c2nc(C(=O)N[C@@H](c3ccc(C(F)(F)F)c(F)c3)C(C)C)cc(=O)[nH]2)cc1', 'human PDE2A1 (Homo sapiens (Human))', 46),
  ('CC[C@@H](NC(=O)c1cc(=O)[nH]c(C(C)(C)c2ccc(OC)cc2)n1)c1ccc(OC(F)(F)F)c(F)c1', 'human PDE2A1 (Homo sapiens (Human))', 30);

1: O=C(NC1(c2ccc(C(F)(F)F)cc2)COC1)c1cc(=O)[nH]c(-c2ccccc2)n1
2: COc1ccc(Cc2nc(C(=O)N[C@@H](c3ccc(C(F)(F)F)cc3)C(C)(C)C)cc(=O)[nH]2)cc1
3: CC[C@@H](NC(=O)c1cc(=O)[nH]c(Cc2ccc(OC)c(F)c2)n1)c1ccc(OC(F)(F)F)c(F)c1
4: Cc1nc(C(=O)N[C@@H](c2ccc3c(c2)OC(F)(F)O3)C2CC2)cc(=O)[nH]1
5: Cc1nc(C(=O)NC2(c3ccc(C(F)F)cc3)CC2)cc(=O)[nH]1
Query: Put the items in sequence by Ki, from largest down. Please write the labels in the order that was asked for.
Result: 4, 5, 1, 3, 2
(4: 94 nM, 5: 54 nM, 1: 29 nM, 3: 1.1 nM, 2: 0.6 nM)

---

subject-of-test: Rhesus PDE2A3 (Macaca mulatta, UniProt B3VTJ2)
Sequence (B3VTJ2 1-941): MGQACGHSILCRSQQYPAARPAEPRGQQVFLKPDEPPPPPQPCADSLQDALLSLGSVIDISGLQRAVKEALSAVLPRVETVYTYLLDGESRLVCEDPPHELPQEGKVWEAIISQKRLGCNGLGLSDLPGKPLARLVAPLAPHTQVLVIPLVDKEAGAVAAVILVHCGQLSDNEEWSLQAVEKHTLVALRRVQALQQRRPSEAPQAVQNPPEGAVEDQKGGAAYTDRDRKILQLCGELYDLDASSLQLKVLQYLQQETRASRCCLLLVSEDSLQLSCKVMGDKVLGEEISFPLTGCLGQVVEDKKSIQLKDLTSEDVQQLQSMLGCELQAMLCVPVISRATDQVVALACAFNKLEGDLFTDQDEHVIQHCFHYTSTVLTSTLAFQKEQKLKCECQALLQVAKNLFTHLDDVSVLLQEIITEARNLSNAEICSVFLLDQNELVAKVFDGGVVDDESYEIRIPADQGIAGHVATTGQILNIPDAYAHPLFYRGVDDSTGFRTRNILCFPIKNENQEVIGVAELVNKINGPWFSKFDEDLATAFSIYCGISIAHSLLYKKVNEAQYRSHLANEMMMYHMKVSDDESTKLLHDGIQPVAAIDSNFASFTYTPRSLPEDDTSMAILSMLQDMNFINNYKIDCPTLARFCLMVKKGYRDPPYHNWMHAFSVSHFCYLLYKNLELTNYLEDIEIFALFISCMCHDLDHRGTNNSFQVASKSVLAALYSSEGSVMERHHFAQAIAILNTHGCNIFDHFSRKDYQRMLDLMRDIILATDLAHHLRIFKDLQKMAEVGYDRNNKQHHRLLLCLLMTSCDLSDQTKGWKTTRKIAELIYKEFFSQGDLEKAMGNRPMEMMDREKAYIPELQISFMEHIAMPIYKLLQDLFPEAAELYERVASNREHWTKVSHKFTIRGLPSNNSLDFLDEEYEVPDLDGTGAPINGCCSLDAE
experiment: PDE2 fluorescence polarization (IMAP FP) inhibition assay, rhesus enzyme
Assay type: biochemical, rhesus macaque
particulars: Rhesus PDE2, Lab A; read-out: Rhesus PDE2 Ki (nM) - Lab A
quantity-kind: Ki (nM)

Example entries begin here.
INSERT INTO assay_data (molecule, value_unit, recorded_result) VALUES
  ('Cc1nc(C(=O)N[C@H](C)c2ccc(C(F)(F)F)c3ccccc23)cc(=O)[nH]1', 'nM', 3490),
  ('Cc1nc(C(=O)NC2(c3ccc(OC(F)(F)F)c(F)c3)CC2)cc(=O)[nH]1', 'nM', 16),
  ('O=C(N[C@@H](c1ccc(OC(F)(F)F)cc1)C1CC1)c1cc(=O)[nH]c(-c2ccccc2)n1', 'nM', 3.9),
  ('CC[C@@H](NC(=O)c1cc(=O)[nH]c(C)n1)c1ccc(OC(F)(F)F)c(F)c1', 'nM', 17),
  ('Cc1nc(C(=O)N[C@H](C)c2ccc(SC(F)(F)F)cc2)cc(=O)[nH]1', 'nM', 11);

I: Cc1nc(C(=O)N[C@H](C)c2ccc(CC(F)(F)F)cc2)cc(=O)[nH]1
II: Cc1nc(C(=O)NC(C)c2ccc(-c3ccccc3)cc2)cc(=O)[nH]1 (single isomer, unassigned) [Example 308]
III: Cc1nc(C(=O)N[C@H](C)c2ccc(-c3ccc(F)cc3)cc2)cc(=O)[nH]1
Query: Put the items in sequence by Ki, from largest down. Please write the labels in the order that was asked for.
Result: II, III, I

---

subject-of-test: human PDE2A1 (Homo sapiens (Human))
experiment: IMAP FP PDE selectivity panel, human PDE2A1
Type: biochemical
particulars: Human PDE2, Lab B; read-out: Human PDE2 Ki (nM) - Lab B
quantity-kind: Ki (nM)

INSERT INTO results (molecule, subject_of_test, recorded_result) VALUES
  ('C[C@@H](NC(=O)c1cc(=O)[nH]c(-c2ccccc2)n1)c1ccc(S(F)(F)(F)(F)F)cc1', 'human PDE2A1 (Homo sapiens (Human))', 5.8),
  ('CCC(C)(NC(=O)c1cc(=O)[nH]c(C)n1)c1ccc(C(F)(F)F)cc1 (single isomer, unassigned) [Example 668]', 'human PDE2A1 (Homo sapiens (Human))', 67);

P: C[C@@H](NC(=O)c1cc(=O)[nH]c(-c2ncccn2)n1)c1ccc(S(F)(F)(F)(F)F)cc1
Q: O=C(NC1(c2ccc(C(F)(F)F)cc2F)CC1)c1cc(=O)[nH]c(-c2ncccn2)n1
R: CC(C)(C)[C@@H](NC(=O)c1cc(=O)[nH]c(C2CC2)n1)c1ccc(C2CC2)cc1
S: CC(C)(C)[C@@H](NC(=O)c1cc(=O)[nH]c(-c2ncccn2)n1)c1ccc(C(F)(F)F)c(F)c1
Query: Put the items in sequence by Ki, from largest down. Please write the labels in the order that was asked for.
Result: Q, S, P, R
(Q: 37 nM, S: 7.7 nM, P: 4.7 nM, R: 1.4 nM)

---

subject-of-test: Rhesus PDE2A3 (Macaca mulatta)
experiment: PDE2 fluorescence polarization (IMAP FP) inhibition assay, rhesus enzyme
Type: biochemical, rhesus macaque
particulars: Rhesus PDE2, Lab A; read-out: Rhesus PDE2 Ki (nM) - Lab A
quantity-kind: Ki (nM)

INSERT INTO assay_data (line_notation, value_unit, recorded_result) VALUES
  ('C[C@@H](NC(=O)c1cc(=O)[nH]c(C2CC2)n1)c1cc(F)c(C(F)(F)F)c(F)c1', 'nM', 104);

a: Cc1cc(-c2ccc([C@@H](C)NC(=O)c3cc(=O)[nH]c(C)n3)cc2)ccn1
b: O=C(NC1(c2ccc(C(F)(F)F)cc2)CCC1)c1cc(=O)[nH]c(-c2ccccc2)n1
Query: // select label with min value of measured Ki from [ a , b ] Please identify the chosen entry by its label.
Result: b
(b: 18 nM, a: 1490 nM)
